meta.source: ChEMBL document CHEMBL3988442

- Tested on: Mycobacterium tuberculosis
- Protocol Text: Cornell M. t heat shock assay; also: in the data most compounds retested in dose-response had high values
- Format: functional, organism-based
- Design: dose or concentration left out as unconfirmed
Screen size: about 69,000 compounds; about 950 (1.4%) showed an effect of 50% or more. What follows is part of a selection rich in strong results, with near analogues and random picks from the rest.
Decision: Percent Effect compared against 10%; not below it gives 1, below it gives -1.

IN: Given the entry CC(C)CN1C[C@@H]2CN(C(=O)c3cccn3C)C[C@@H]2C1=O , answer whether its Percent Effect meets or surpasses 10%.
OUT: -1

IN: Evaluate COCC(=O)N1CCOCC2(CCN(Cc3cccs3)C2)C1.O=C(O)C(F)(F)F (stereo not given) : Percent Effect at minimum 10%?
OUT: -1

IN: Decide: is the reported value of Percent Effect for Cn1cc(N2CCC3(CCCN(Cc4ccc(F)cc4)C3)C2=O)cn1.O=C(O)C(F)(F)F (stereo not given) equal to or greater than 10%?
OUT: -1

IN: # check: Percent Effect of Cn1cccc1C(=O)N1C[C@H]2CN(CC3CC3)C(=O)[C@H]2C1 is greater than or equal to 10%
OUT: 1

IN: Is it the case that CCN1C[C@@H]2CN(C(=O)c3cccn3C)C[C@@H]2C1=O has Percent Effect reaching or exceeding 10%?
OUT: 1
